# Test system: Plasmodium falciparum
# TEST DESCRIPTION: GSK_TCMDC: Inhibition of Plasmodium falciparum Dd2 in whole red blood cells, using parasite LDH activity as an index of growth. Test compounds present at 2uM
# Assay type: functional
Quick list: Inhibition per entry.

Solved cases (3 shown):
{"COMPOUND": "O=C(/C=C/c1cccc2c1OCO2)Nc1ccnc2ccncc12", "ENDPOINT": "Inhibition", "ENDPOINT RESULT": "35%"}
{"COMPOUND": "CS(=O)(=O)Cc1ccc(Nc2nccc(-c3c(-c4cccc(C(=O)Nc5c(F)cccc5F)c4)nn4ccccc34)n2)cc1", "ENDPOINT": "Inhibition", "ENDPOINT RESULT": "92%"}
{"COMPOUND": "COc1ccc(-c2ccc(NC(=O)c3ccc(F)cc3)cc2)cc1CNC(C)C.O=C(O)C(F)(F)F", "ENDPOINT": "Inhibition", "ENDPOINT RESULT": "28%"}

// query Tell me its Inhibition given "O=C(Nc1ccc(Cl)cc1)Nc1ccc(-c2csc(-c3nc4ccccc4[nH]3)c2)cc1" as the entry.
// result 40%

// query Tell me its Inhibition given "C=CCc1cc(Cc2cnc(N)nc2N)c2ccc(C)nc2c1O" as the entry.
// result 3%

// query Tell me its Inhibition given CN1CCCC1CCCOC(=O)c1ccc(N)cc1 (centres undefined) as the entry.
// result 2%

// query Tell me its Inhibition given "COc1ccc2nc(-c3cc(-c4ccc(NC(=O)C(C)C)cc4)cnc3N)[nH]c2c1" as the entry.
// result 47%

// query Tell me its Inhibition given "O=C(NC1CCN(Cc2cccc(C(F)(F)F)c2)CC1)c1ccc(-c2cccc(C(F)(F)F)c2)s1.O=C(O)C(F)(F)F" as the entry.
// result 54%

// query Tell me its Inhibition given "CCc1cn2c3c(cc(C(=O)N[C@@H](Cc4ccccc4)[C@H](O)CNC4CC4)cc13)N(CC)S(=O)(=O)CC2.O=CO" as the entry.
// result 99%

* * *

# Tested on: Plasmodium falciparum
# TEST DESCRIPTION: GSK_TCMDC: Inhibition of Plasmodium falciparum 3D7 in whole red blood cells, using parasite LDH activity as an index of growth. Test compounds present at 2uM
# Type: functional
ENDPOINT: Inhibition
I'd appreciate it if you wrote the number followed by its unit.

Solved cases (5 shown):
{"MOLECULE": "Cc1nc2ccc(Nc3nccc(-c4c(-c5cccc(NC(=O)c6c(F)cccc6F)c5)nn5ccccc45)n3)cc2nc1C", "TESTED ON": "Plasmodium falciparum", "Inhibition": "91%"}
{"MOLECULE": "N#Cc1ccc(C(=O)Nc2cccc(-c3ccc(CN4CCCC4)cc3)c2)cc1.O=C(O)C(F)(F)F", "TESTED ON": "Plasmodium falciparum", "Inhibition": "99%"}
{"MOLECULE": "CC(=O)c1ccc2cc(C(=O)NC3CCC(CCN4CCc5ccc(-c6noc(C)n6)cc5CC4)CC3)[nH]c2c1.Cl (stereo not drawn)", "TESTED ON": "Plasmodium falciparum", "Inhibition": "81%"}
{"MOLECULE": "O=C(Nc1cccc(CN2CCCN(Cc3ccc4c(c3)OCO4)CC2)c1)c1cc2ccccc2s1.O=C(O)C(F)(F)F", "TESTED ON": "Plasmodium falciparum", "Inhibition": "95%"}
{"MOLECULE": "O=C(CSc1nc2ccccc2c(=O)n1C1CC1)Nc1cc(C(F)(F)F)ccc1Cl", "TESTED ON": "Plasmodium falciparum", "Inhibition": "97%"}

// query Tell me its Inhibition given "CC(C)C[C@H](Nc1ccnc(NCC2CCCCC2)n1)C(=O)NCCOc1ccccc1.O=C(O)C(F)(F)F" as the entry.
// result 89%

// query Tell me its Inhibition given "COc1ccc2ncc(F)c(CCN3CC[C@H](NCc4cc(C#N)c5c(c4)OCCO5)[C@H](O)C3)c2c1" as the entry.
// result 96%

// query Tell me its Inhibition given "CN(C)Cc1ccc(-c2ccc(NC(=O)c3ccc4c(=O)n(Cc5ccccc5)cnc4c3)cc2)cc1" as the entry.
// result 100%

// query Tell me its Inhibition given Cc1ccnc(NC(c2ccc(Cl)c([N+](=O)[O-])c2)c2ccc3cccnc3c2O)c1 (stereo not drawn) as the entry.
// result 89%

// query Tell me its Inhibition given "CCOC(=O)c1c(CN(CC)CC)n(-c2ccccc2)c2cc(Br)c(O)cc12" as the entry.
// result 93%

// query Tell me its Inhibition given "Nc1ncc(-c2cc3ccccc3o2)c(N)n1" as the entry.
// result 81%

// query Tell me its Inhibition given O=C(Nc1ccc2c(c1)CCN2C1CCN(Cc2cccc(C(F)(F)F)c2)C1)c1ccco1 (stereo not drawn) as the entry.
// result 95%

// query Tell me its Inhibition given "COc1ccc(-c2cccc(NC(=O)c3cccc(F)c3)c2)cc1CN1CCCN(C)CC1.O=C(O)C(F)(F)F" as the entry.
// result 100%

// query Tell me its Inhibition given "COc1cc2ccccc2c(CNCCCCCCNCc2c(OC)c(OC)cc3ccccc23)c1OC.CS(=O)(=O)O" as the entry.
// result 95%

// query Tell me its Inhibition given COc1ccc(C(=O)Nc2cc(Cl)c3c(c2)C2CCCN2CC3)cc1C(F)(F)F.Cl (stereo not drawn) as the entry.
// result 99%

// query Tell me its Inhibition given "CN1CCN(CC(=O)Nc2ccc(-c3ccc(-c4nc5ccccc5[nH]4)cc3)cc2)CC1" as the entry.
// result 98%

// query Tell me its Inhibition given "Cc1c(CNCCCNc2nc3ccccc3[nH]2)[nH]c2cc(Cl)cc(Cl)c12" as the entry.
// result 100%

// query Tell me its Inhibition given O=C(NCC(CCCN1CCC(c2c[nH]c3ccccc23)CC1)c1ccccc1)Nc1ccc(Cl)c(Cl)c1 (stereo not drawn) as the entry.
// result 100%

* * *

Quick list: Inhibition per entry.
# Tested on: HepG2
# TEST DESCRIPTION: GSK_TCMDC: Percent inhibition of human HepG2 cell line. Test compounds present at 10uM.
# Format: functional
Numeric only. Scale: %

{"MOLECULE": "COc1ccc(CNCc2ccc(F)cc2)cc1-c1ccc(S(=O)(=O)NCCN2CCCC2)cc1.O=C(O)C(F)(F)F", "TESTED ON": "HepG2", "ENDPOINT RESULT": 38}

// query Tell me its Inhibition given COc1cc(F)c2nccc([C@@H](O)CN3CCC(NCc4ccc5c(n4)NC(=O)CS5)C(F)C3)c2c1.Cl (some centres not stated) as the entry.
// result 32

// query Tell me its Inhibition given "CCCCC(CCCC)CN1C(=O)C(c2ccccc2)(c2ccccc2)N=C1N.O=CO" as the entry.
// result 28

// query Tell me its Inhibition given "CCNc1cc(C(=O)N[C@@H](Cc2ccc(F)c(F)c2)[C@H](O)CNCc2cccc(OC)c2)cc(N2CCCCS2(=O)=O)c1.Cl" as the entry.
// result 4

// query Tell me its Inhibition given CCOc1ccc2c(c1)OC(c1ccccc1)(C(F)(F)F)NC2=O (configuration not stated) as the entry.
// result 0

// query Tell me its Inhibition given "FC(F)(F)c1ccc2[nH]c(-c3ccc(-c4cccc(CNCc5cnn(-c6ccccc6)n5)c4)s3)nc2c1.O=C(O)C(F)(F)F" as the entry.
// result 38

// query Tell me its Inhibition given "O=C(Cc1c[nH]cn1)Nc1ccc(-c2ccc(-c3nc4ccccc4[nH]3)s2)cc1" as the entry.
// result 44

* * *

# Tested on: HepG2
# TEST DESCRIPTION: GSK_TCMDC: Percent inhibition of human HepG2 cell line. Test compounds present at 10uM.
# Type: functional
ENDPOINT: Inhibition (%)
Numeric only. Scale: %

// query State, for HepG2, measured Inhibition of the molecule listed here: "Cc1cc(NC2CCCC2)nc(Nc2ccccc2F)n1"
// result 24

// query State, for HepG2, measured Inhibition of the molecule listed here: "CCNc1cc(C(=O)N[C@@H](Cc2ccccc2)[C@H](O)CNCc2cccc(-n3ccnc3)c2)cc(N2CCCC2=O)c1.O=C(O)C(F)(F)F"
// result 1

// query State, for HepG2, measured Inhibition of the molecule listed here: "O=C(NCc1ccc(F)cc1)Nc1cccc(-c2ccc(-c3nc4ccccc4[nH]3)cc2)c1"
// result 45

// query State, for HepG2, measured Inhibition of the molecule listed here: "O=C(Nc1ccc(-c2cccc(-c3nc4cc(C(F)(F)F)ccc4[nH]3)c2)cc1)c1ccc(=O)[nH]n1"
// result 72

// query State, for HepG2, measured Inhibition of the molecule listed here: COc1ccc(C2C(C(=O)Nc3cc(Cl)c(OC)cc3OC)c3ccccc3C(=O)N2C)cc1 (centres undefined)
// result 14

// query State, for HepG2, measured Inhibition of the molecule listed here: "CN(C)CCN(C)Cc1ccc(-c2ccc(NC(=O)c3cccc(C#N)c3)cc2)cc1.O=C(O)C(F)(F)F"
// result 20
